Data credit: patent US20210188839A1

Property: inhibition at 1 µM; scope: individual molecules
Biological target: human Nav1.6 (hNav1.6) (Homo sapiens, UniProt Q9UQD0)
Construct: expressed in transfected cells; host or cells: HEK-293
Sequence (Q9UQD0 whole entry): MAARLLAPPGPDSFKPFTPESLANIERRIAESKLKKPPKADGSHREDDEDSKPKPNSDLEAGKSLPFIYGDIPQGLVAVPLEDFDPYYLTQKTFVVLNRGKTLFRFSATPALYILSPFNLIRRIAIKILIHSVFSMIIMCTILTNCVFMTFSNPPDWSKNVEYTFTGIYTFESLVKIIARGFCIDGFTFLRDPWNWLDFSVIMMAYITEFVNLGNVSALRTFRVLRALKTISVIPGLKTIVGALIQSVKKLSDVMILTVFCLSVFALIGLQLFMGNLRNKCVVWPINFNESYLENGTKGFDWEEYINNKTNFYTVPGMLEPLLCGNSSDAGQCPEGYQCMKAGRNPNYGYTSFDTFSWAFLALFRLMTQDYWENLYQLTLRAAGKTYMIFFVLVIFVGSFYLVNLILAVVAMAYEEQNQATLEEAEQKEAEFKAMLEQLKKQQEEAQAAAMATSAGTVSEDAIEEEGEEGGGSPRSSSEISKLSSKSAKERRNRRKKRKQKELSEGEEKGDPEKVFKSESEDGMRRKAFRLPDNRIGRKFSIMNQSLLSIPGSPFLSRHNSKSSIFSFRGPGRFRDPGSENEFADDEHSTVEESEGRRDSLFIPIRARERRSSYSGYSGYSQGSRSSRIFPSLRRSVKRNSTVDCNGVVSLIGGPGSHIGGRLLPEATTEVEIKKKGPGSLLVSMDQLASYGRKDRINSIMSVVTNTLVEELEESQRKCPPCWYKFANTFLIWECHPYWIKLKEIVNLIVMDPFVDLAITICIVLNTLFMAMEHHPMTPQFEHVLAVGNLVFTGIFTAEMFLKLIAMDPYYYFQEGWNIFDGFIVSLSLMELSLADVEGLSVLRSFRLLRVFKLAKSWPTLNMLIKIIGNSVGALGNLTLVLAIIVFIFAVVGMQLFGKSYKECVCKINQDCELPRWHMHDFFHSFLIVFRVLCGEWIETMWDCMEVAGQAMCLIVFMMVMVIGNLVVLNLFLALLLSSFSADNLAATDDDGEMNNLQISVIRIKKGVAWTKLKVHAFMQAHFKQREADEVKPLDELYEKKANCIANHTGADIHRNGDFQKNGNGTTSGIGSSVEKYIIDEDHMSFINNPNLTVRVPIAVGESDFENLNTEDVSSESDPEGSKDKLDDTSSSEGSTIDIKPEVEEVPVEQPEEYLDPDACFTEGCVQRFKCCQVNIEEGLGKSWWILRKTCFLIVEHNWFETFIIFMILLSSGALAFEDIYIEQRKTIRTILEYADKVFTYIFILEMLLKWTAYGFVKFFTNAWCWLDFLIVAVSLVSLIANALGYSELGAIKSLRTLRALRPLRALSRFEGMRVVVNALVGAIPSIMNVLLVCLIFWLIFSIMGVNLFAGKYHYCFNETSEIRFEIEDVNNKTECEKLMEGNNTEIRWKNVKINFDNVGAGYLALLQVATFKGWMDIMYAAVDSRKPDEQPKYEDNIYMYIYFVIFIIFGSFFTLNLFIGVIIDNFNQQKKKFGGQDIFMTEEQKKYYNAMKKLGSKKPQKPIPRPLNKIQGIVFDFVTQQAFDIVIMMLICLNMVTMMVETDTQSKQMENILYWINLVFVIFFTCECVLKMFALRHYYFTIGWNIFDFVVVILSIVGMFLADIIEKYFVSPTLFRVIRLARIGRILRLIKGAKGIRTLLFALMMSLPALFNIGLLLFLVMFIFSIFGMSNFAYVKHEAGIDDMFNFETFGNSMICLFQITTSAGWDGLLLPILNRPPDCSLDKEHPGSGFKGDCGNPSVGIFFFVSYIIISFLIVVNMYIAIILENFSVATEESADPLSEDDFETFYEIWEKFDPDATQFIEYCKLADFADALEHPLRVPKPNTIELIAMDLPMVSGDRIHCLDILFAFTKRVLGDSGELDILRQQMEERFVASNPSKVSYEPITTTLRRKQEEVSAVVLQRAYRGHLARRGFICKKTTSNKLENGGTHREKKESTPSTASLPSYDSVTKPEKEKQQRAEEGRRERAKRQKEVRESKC
Experiment: Modulation of late sodium current (INaL), PatchXpress high throughput electrophysiology
Format: cell-based
Conditions: HEK293; 1 μM compound; HEK-293 cells expressing recombinant hNav1.6; late current evoked by 300 nM ATX-II

molecule: COCc1cc(OC(F)(F)F)ccc1-c1cnc2ncc(C(F)(F)F)n2c1
study-target: human Nav1.6 (hNav1.6) (Homo sapiens, UniProt Q9UQD0)
inhibition at 1 µM: < 50%

Memo: N#CC1(c2ccc(-c3cn4c(C(F)(F)F)cnc4cn3)cc2)CC1 , reported inhibition at 1 µM: < 50%

Entry Cc1cc(OC(F)(F)F)ccc1-c1cc2ccnn2cn1 — recorded inhibition at 1 µM = < 50%

----------
Recorded inhibition at 1 µM, one value per entry.
Biological target: human Nav1.6 (hNav1.6) (Homo sapiens, UniProt Q9UQD0)
Construct: expressed in transfected cells; host or cells: HEK-293
Assay: Modulation of late sodium current (INaL), PatchXpress high throughput electrophysiology
Assay type: cell-based
Conditions: HEK293; 1 μM compound; HEK-293 cells expressing recombinant hNav1.6; late current evoked by 300 nM ATX-II
Procedure: Functional characterization of exemplary compounds to modulate INaL expressed by the Nav1.6 voltage-gated sodium channel was accomplished using the PatchXpress' high throughput electrophysiology platform (Molecular Devices, Sunnyvale, Calif.). […] INaL amplitude and stability were determined by analyzing the mean current amplitude over the final 20 ms of thetest pulse. […]

Some solved entries appear below for comparison.
chemical-string: Cc1cn2cc(-c3ccc(OC(F)(F)F)cc3)cnc2n1
reported: < 50%
--
chemical-string: Cc1cc(OC(F)(F)F)ccc1-c1cnn2nccc2c1
reported: < 50%
--
chemical-string: FC(F)(F)Oc1ccc(-c2cn3ccnc3cn2)cc1
reported: < 50%

# inhibition at 1 µM of FC(F)(F)Oc1ccc(-c2cn3c(C(F)(F)F)cnc3cn2)cc1 = > 50%

The measured inhibition at 1 µM associated with FC(F)(F)COc1ccc(-c2ccn3nccc3c2)cn1 reads > 50%

----------
# inhibition at 1 µM per record follows
Target: human Nav1.6 (hNav1.6) (Homo sapiens)
Construct: expressed in transfected cells; host or cells: HEK-293
Assay: Modulation of late sodium current (INaL), PatchXpress high throughput electrophysiology
Type: cell-based
Conditions: HEK293; 1 μM compound; HEK-293 cells expressing recombinant hNav1.6; late current evoked by 300 nM ATX-II

# annotated cases, reported inhibition at 1 µM shown
chemical-string: FC(F)(F)Oc1ccc(-c2ccc3nccn3c2)cc1
reported: < 50%
--
chemical-string: Cc1cc(OC(F)(F)F)ccc1-c1cnn2ncc(C(F)(F)F)c2c1
reported: < 50%
--
chemical-string: Cc1nc2ncc(-c3ccc(OC(F)(F)F)cc3)cn2c1C(F)(F)F
reported: < 50%
--
chemical-string: FC(F)(F)Oc1ccc(-c2cc3ccnn3cn2)cc1
reported: < 50%

Continue with the next molecule.
Please fill in: inhibition at 1 µM reported for FC(F)(F)Oc1ccc(-c2cnn3ncc(C(F)(F)F)c3c2)cc1 = > 50%

----------
Target: human Nav1.6 (hNav1.6) (Homo sapiens)
Construct: expressed in transfected cells; host or cells: HEK-293
Experiment: Modulation of late sodium current (INaL), PatchXpress high throughput electrophysiology
Format: cell-based
Settings: HEK293; 1 μM compound; HEK-293 cells expressing recombinant hNav1.6; late current evoked by 300 nM ATX-II
Quick reference: inhibition at 1 µM of the listed items.

compound: Cc1cc(OC(F)(F)F)ccc1-c1cnc2ncc(C(F)(F)F)n2c1
inhibition at 1 µM: < 50%

// inhibition at 1 µM value for COc1cc(OC(F)(F)F)ccc1-c1ccn2nccc2c1 : > 50%

response.value for N#CC1(c2ccc(-c3ccc4ncc(C(F)(F)F)n4c3)cc2)CC1 (field: inhibition at 1 µM) = < 50%

compound FC(F)(F)Oc1ccc(-c2cc3c(C(F)(F)C(F)(F)F)cnn3cn2)cc1 [Compound 25b] , inhibition at 1 µM observed: > 50%

The value of inhibition at 1 µM measured for the compound FC(F)(F)c1ccc(-c2cn3c(C(F)(F)F)cnc3cn2)cc1 turned out to be > 50%

// recorded inhibition at 1 µM for Cc1cc(OC(F)(F)F)ccc1-c1cnn2ncc(C(=O)N(C)C)c2c1 : < 50%
